Test system: Lolium multiflorum
Test Method Notes: Example B: post-emergence herbicidal application, pot test
Assay type: in vivo
Assay Context: 4000 g/ha, 576 h
Can you tell me ACTIVITE DE POST-LEVEE LOL for the items I'm about to list?

Input line: Param item = O=C(O)c1cccnc1-c1n[nH]c(Cc2ccccc2)n1 [compound 45] ; retrieve measured ACTIVITE DE POST-LEVEE LOL.
Output line: 2 (50 à 70)

Input line: Fill in the blank: the reported ACTIVITE DE POST-LEVEE LOL of O=C(O)c1cccnc1-c1nc(-c2ccccc2)nn1S(=O)(=O)N1CCCC1 [compound 15] is ____.
Output line: 3 (30 à 50)

Input line: For the compound shown here, O=C(O)c1cccnc1-c1n[nH]c(-c2sc(Cl)c(Cl)c2Cl)n1 [compound 44] , give the reported ACTIVITE DE POST-LEVEE LOL.
Output line: 0 (90 à 100)

Input line: // query ACTIVITE DE POST-LEVEE LOL value for entry O=C(O)c1cccnc1-c1n[nH]c(-c2cccc(Cl)c2)n1 [compound 48]
Output line: 2 (50 à 70)

Input line: Report ACTIVITE DE POST-LEVEE LOL for CN(C)S(=O)(=O)n1nc(-c2ccccc2)nc1-c1ncccc1C(=O)O [compound 1] please.
Output line: 0 (90 à 100)

Input line: Param item = CN(C)S(=O)(=O)n1nc(C(C)(C)C)nc1-c1ncccc1C(=O)O [compound 12] ; retrieve measured ACTIVITE DE POST-LEVEE LOL.
Output line: 0 (90 à 100)

Input line: Any idea what ACTIVITE DE POST-LEVEE LOL was measured for O=C(O)c1cccnc1-c1n[nH]c(-c2cc(Cl)cc(Cl)c2)n1 [compound 50] ?
Output line: 0 (90 à 100)

Input line: Dear colleague, I am looking for the recorded ACTIVITE DE POST-LEVEE LOL of the following compound: COC(=O)c1cccnc1-c1nc(-c2ccccc2)nn1S(=O)(=O)c1ccccc1Cl [compound 24]
Output line: 0 (90 à 100)

Input line: Returns the measured ACTIVITE DE POST-LEVEE LOL for the input compound. Input: CN(C)S(=O)(=O)n1nc(-c2ccc(Cl)cc2Cl)nc1-c1ncccc1C(=O)O [compound 3]
Output line: 0 (90 à 100)

Input line: Recorded ACTIVITE DE POST-LEVEE LOL for Cc1ccccc1-c1nc(-c2ncccc2C(=O)O)n[nH]1 [compound 54] , please?
Output line: 3 (30 à 50)

Input line: Can you look up the measured ACTIVITE DE POST-LEVEE LOL of O=C(O)c1cccnc1-c1n[nH]c(-c2cc(Cl)ccc2Cl)n1 [compound 73] for me?
Output line: 2 (50 à 70)

Input line: Recorded ACTIVITE DE POST-LEVEE LOL of O=C(O)c1cccnc1-c1n[nH]c(-c2ccc(Cl)cc2Cl)n1 [compound 43] , please.
Output line: 3 (30 à 50)

Input line: // returns reported ACTIVITE DE POST-LEVEE LOL for input CN(C)S(=O)(=O)n1nc(-c2cccc(Cl)c2)nc1-c1ncccc1C(=O)O [compound 9]
Output line: 0 (90 à 100)

Input line: ACTIVITE DE POST-LEVEE LOL lookup needed for O=C(O)c1cccnc1-c1n[nH]c(C=Cc2ccccc2)n1 [compound 67] , thanks.
Output line: 0 (90 à 100)

All figures here come from patent EP0429372A1.
